tested on: soybean; experiment: Foliar spread test for upland field; type: in vivo; set-up: key: 0 = normal development, 5 = all killed (6 ranks vs. untreated); conditions: foliar spray, 500 ppm, 3 weeks, glass house 25° C.
Field: Effects Soybean. Provide a value for each of the compounds that follow.

Below is a list of compounds. For each, state its recorded Effects Soybean.
1. CCCC(=Cc1cccc(C(F)(F)F)c1)c1nc2cc([N+](=O)[O-])ccc2o1 [I-c-74]
2. CC(=Cc1cccc(C(F)(F)F)c1)c1nc2cc(C#N)c(Cl)cc2o1 [I-c-141]
3. FC(F)(F)c1cccc(Oc2cccc(-c3nc4cc(C(F)(F)F)ccc4o3)n2)c1 [I-a-13]
4. FC(F)(F)c1cccc(C=Cc2nc3ccccc3o2)c1 [I-c-1]
5. CC(=Cc1cccc(C(F)(F)F)c1)c1nc2cc(F)ccc2o1 [I-c-40]

1. 5
2. 3
3. 3
4. 5
5. 4

###

system: common lambsquarters; experiment: Foliar spread test for upland field; assay type: in vivo, Chenopodium album; parameters: key: 0 = normal development, 5 = all killed (6 ranks vs. untreated); conditions: foliar spray, 500 ppm, 3 weeks, glass house 25° C.
Field: Effects Common lambsquarters. Provide a value for each of the compounds that follow.
Numbers only.

[
  {
    "compound": "FC(F)(F)c1cccc(Oc2cccc(-c3nc4cc(Cl)ccc4o3)n2)c1 [I-a-3]",
    "assay-system": "common lambsquarters",
    "Effects Common lambsquarters": 5
  },
  {
    "compound": "CCCC(=Cc1cccc(C(F)(F)F)c1)c1nc2cc([N+](=O)[O-])ccc2o1 [I-c-74]",
    "assay-system": "common lambsquarters",
    "Effects Common lambsquarters": 5
  },
  {
    "compound": "CC(=Cc1cccc(C(F)(F)F)c1)c1nc2cc(C#N)c(F)cc2o1 [I-c-135]",
    "assay-system": "common lambsquarters",
    "Effects Common lambsquarters": 5
  },
  {
    "compound": "CCCC(=Cc1cccc(C(F)(F)F)c1)c1nc2cc(Cl)ccc2o1 [I-c-57]",
    "assay-system": "common lambsquarters",
    "Effects Common lambsquarters": 5
  },
  {
    "compound": "CC/C(=C\\c1cccc(C(F)(F)F)c1)c1nc2cc(Cl)ccc2o1 [I-c-55]",
    "assay-system": "common lambsquarters",
    "Effects Common lambsquarters": 5
  }
]

Below is a list of compounds. For each, state its recorded Effects Common lambsquarters.
1. CC(=Cc1cccc(C(F)(F)F)c1)c1nc2cc(Cl)ccc2o1 [I-c-53]
2. FC(F)(F)c1cccc(Oc2cccc(-c3nc4ccccc4o3)n2)c1 [I-a-1]

1. 5
2. 5

Below is a list of compounds. For each, state its recorded Effects Common lambsquarters.
1. Fc1ccc2oc(-c3cccc(Oc4cccc(C(F)(F)F)c4)n3)nc2c1 [I-a-2]
2. CCCC(=Cc1cccc(C(F)(F)F)c1)c1nc2cc(F)c(F)cc2o1 [I-c-113]
3. CCC(Oc1cc(C(F)(F)F)nn1C)c1nc2cc(C#N)c(F)cc2o1 (stereo not shown) [Compound 1-e-10]

5
5
5

Below is a list of compounds. For each, state its recorded Effects Common lambsquarters.
1. CCCC(=Cc1cccc(C(F)(F)F)c1)c1nc2cc(C#N)ccc2o1 [I-c-83]
2. CC/C(=C\c1ccc(F)c(C(F)(F)F)c1)c1nc2cc(Cl)ccc2o1 [I-c-54]
3. CCC(Oc1cc(C(F)(F)F)no1)c1nc2cc(C#N)c(F)cc2o1 (stereo not shown) [Compound 1-e-28]
4. FC(F)(F)c1cccc(C=Cc2nc3ccccc3o2)c1 [I-c-1]
5. FC(F)(F)c1cccc(Oc2cccc(-c3nc4cc(C(F)(F)F)ccc4o3)n2)c1 [I-a-13]
6. CCC(F)(Cc1ccc(F)c(C(F)(F)F)c1)c1nc2cc(Cl)ccc2o1 (stereo not drawn) [I-d-13]
7. CCC(Oc1cc(C(F)(F)F)nn1C)c1nc2cc(Cl)ccc2o1 (stereo not shown) [Compound 1-e-2]
8. N#Cc1ccc2oc(-c3cccc(Oc4cccc(C(F)(F)F)c4)n3)nc2c1 [I-a-18]

[5, 5, 5, 3, 5, 5, 3, 4]

Memo: CCC(Oc1cc(C(F)(F)F)nn1C)c1nc2cc(C#N)c(Cl)cc2o1 (stereo not shown) [Compound 1-e-11] , reported Effects Common lambsquarters: 5
